test: physchem; conditions: pH 7, aqueous buffer, thermodynamic from solid
Recorded Metric: solubility

CCOC(=O)[C@@H](N)CSSC[C@H](N)C(=O)OCC; > 100 mM

The origin of these recorded values is patent US20170002393A1.
